- Test system: Enterococcus faecalis CCM 4224 (ATCC 29212)
- test.method.notes: Antibacterial microdilution broth (EUCAST), EF
- Assay type: cell-based
- condition.summary: Enterococcus faecalis; read after 24 h; read-out: EF MIC
measured.endpoint: MIC

NC(=O)c1nccnc1NC(=O)c1cc(Cl)cc(Cl)c1 [Compound 19]    > 500 µM
O=c1[nH]c(-c2ccc(F)cc2)nc2nccnc12 [Compound 41]    > 125 µM
COc1ccc(C(=O)Nc2nccnc2C(N)=O)cc1 [Compound 9]    > 125 µM
COC(=O)c1nccnc1NC(=O)c1ccccc1Br [Compound 16e]    > 500 µM

Task: MIC lookup needed for CNC(=O)c1nccnc1NC(=O)c1ccc(Cl)cc1 [Compound 34] , thanks.
Result: > 125 µM

Task: MIC lookup needed for Cc1ccccc1C(=O)Nc1nccnc1C(N)=O [Compound 2] , thanks.
Result: > 500 µM

Task: MIC lookup needed for COc1cccc(C(=O)Nc2nccnc2C(N)=O)c1 [Compound 8] , thanks.
Result: > 500 µM

Task: MIC lookup needed for CCCCCC(=O)Nc1nccnc1C(N)=O [Compound 30] , thanks.
Result: > 500 µM

Task: MIC lookup needed for NC(=O)c1nccnc1NC(=O)c1cccc(Br)c1 [Compound 17] , thanks.
Result: > 125 µM

Task: MIC lookup needed for NC(=O)c1nccnc1NC(=O)c1ccc(F)cc1 [Compound 12] , thanks.
Result: > 500 µM

Task: MIC lookup needed for NC(=O)c1nccnc1NC(=O)C12CC3CC(CC(C3)C1)C2 [Compound 28] , thanks.
Result: > 500 µM

Task: MIC lookup needed for NC(=O)c1nccnc1NC(=O)c1ccccc1Br [Compound 16] , thanks.
Result: > 500 µM

Task: MIC lookup needed for NC(=O)c1nccnc1NC(=O)c1ccc(Cl)cc1 [Compound 15] , thanks.
Result: > 500 µM

Task: MIC lookup needed for COC(=O)c1nccnc1NC(=O)c1cccc(Cl)c1 [Compound 14e] , thanks.
Result: > 500 µM

Task: MIC lookup needed for O=c1[nH]c(-c2ccc(Cl)cc2)nc2nccnc12 [Compound 42] , thanks.
Result: > 125 µM

Task: MIC lookup needed for O=c1[nH]c(-c2ccc(Br)cc2)nc2nccnc12 [Compound 43] , thanks.
Result: > 125 µM

Task: MIC lookup needed for COC(=O)c1nccnc1NC(=O)c1ccc(C)cc1 [Compound 4e] , thanks.
Result: > 500 µM

Task: MIC lookup needed for NC(=O)c1nccnc1NC(=O)C1CCCCC1 [Compound 27] , thanks.
Result: > 500 µM

Task: MIC lookup needed for O=c1[nH]c(-c2ccccc2)nc2nccnc12 [Compound 39] , thanks.
Result: > 125 µM

Task: MIC lookup needed for CC(C)(C)c1ccc(C(=O)Nc2nccnc2C(N)=O)cc1 [Compound 6] , thanks.
Result: > 125 µM

Task: MIC lookup needed for COc1ccccc1C(=O)Nc1nccnc1C(N)=O [Compound 7] , thanks.
Result: > 500 µM

Task: MIC lookup needed for Cc1ccc(-c2nc3nccnc3c(=O)[nH]2)cc1 [Compound 40] , thanks.
Result: > 125 µM

Task: MIC lookup needed for CCc1ccc(C(=O)Nc2nccnc2C(N)=O)cc1 [Compound 5] , thanks.
Result: > 250 µM

Task: MIC lookup needed for CNC(=O)c1nccnc1NC(=O)c1ccc(Br)cc1 [Compound 35] , thanks.
Result: > 125 µM

Task: MIC lookup needed for NC(=O)c1nccnc1NC(=O)c1ccccc1 [Compound 1] , thanks.
Result: > 500 µM

Task: MIC lookup needed for CCCCCCCC(=O)Nc1nccnc1C(N)=O [Compound 32] , thanks.
Result: > 250 µM

Task: MIC lookup needed for NC(=O)c1nccnc1NC(=O)c1cccc(F)c1 [Compound 11] , thanks.
Result: > 250 µM

Task: MIC lookup needed for NC(=O)c1nccnc1NC(=O)c1ccccc1C(F)(F)F [Compound 20] , thanks.
Result: > 500 µM

Task: MIC lookup needed for Cc1cccc(C(=O)Nc2nccnc2C(N)=O)c1 [Compound 3] , thanks.
Result: > 500 µM

Task: MIC lookup needed for CNC(=O)c1nccnc1NC(=O)c1ccc(C)cc1 [Compound 33] , thanks.
Result: > 500 µM

Task: MIC lookup needed for NC(=O)c1nccnc1NC(=O)c1ccc([N+](=O)[O-])cc1 [Compound 21] , thanks.
Result: > 125 µM

Task: MIC lookup needed for NC(=O)c1nccnc1NC(=O)c1cccc(Cl)c1 [Compound 14] , thanks.
Result: > 125 µM
